Molecular target: human mGluR2 (Homo sapiens)
Sequence (Q14416 19-872): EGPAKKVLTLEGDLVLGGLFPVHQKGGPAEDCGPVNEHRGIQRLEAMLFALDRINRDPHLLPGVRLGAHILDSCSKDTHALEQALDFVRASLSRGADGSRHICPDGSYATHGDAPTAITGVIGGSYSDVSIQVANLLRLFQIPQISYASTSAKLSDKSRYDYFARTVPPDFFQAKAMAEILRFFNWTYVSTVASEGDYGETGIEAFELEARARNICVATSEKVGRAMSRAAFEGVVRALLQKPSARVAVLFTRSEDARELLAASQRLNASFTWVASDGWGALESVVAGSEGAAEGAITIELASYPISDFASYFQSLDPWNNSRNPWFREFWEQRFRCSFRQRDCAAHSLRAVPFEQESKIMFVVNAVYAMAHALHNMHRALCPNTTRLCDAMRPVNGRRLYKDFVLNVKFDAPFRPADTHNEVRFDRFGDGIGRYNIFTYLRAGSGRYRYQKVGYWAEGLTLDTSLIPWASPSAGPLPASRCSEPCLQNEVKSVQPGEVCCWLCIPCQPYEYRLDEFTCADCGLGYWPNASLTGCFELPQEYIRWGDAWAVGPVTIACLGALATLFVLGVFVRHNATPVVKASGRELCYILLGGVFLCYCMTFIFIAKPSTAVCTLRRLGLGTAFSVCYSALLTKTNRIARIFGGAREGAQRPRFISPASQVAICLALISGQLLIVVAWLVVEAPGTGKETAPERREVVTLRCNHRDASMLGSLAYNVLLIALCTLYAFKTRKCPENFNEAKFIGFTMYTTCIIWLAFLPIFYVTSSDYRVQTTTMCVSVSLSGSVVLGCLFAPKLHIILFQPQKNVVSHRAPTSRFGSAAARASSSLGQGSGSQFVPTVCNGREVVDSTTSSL
Experiment: FLIPR Ca2+ mobilization assay, potentiation of glutamate response
Settings: CHO dhfr- cells expressing human mGluR2 and Gα16; potentiation after EC20 glutamate (900 nM); read-out: Representative FLIPR EC50 Values: IC50
pEC50: −log10 of the molar value.
assay metric: pEC50

Please review the entries below; each comes with its answer.
[
  {
    "compound": "CN1c2cc(-c3cccc(N4CCS(=O)(=O)CC4)c3)ccc2N(CC2CCC2)S1(=O)=O [Compound 8-1]",
    "study system": "human mGluR2 (Homo sapiens)",
    "assay metric": "pEC50",
    "numeric readout": 6.96
  },
  {
    "compound": "CN1c2nc(-c3cc(Oc4ccnc(C#N)c4)ccc3C#N)ccc2N(CC2CC2(F)F)S1(=O)=O (stereo not shown) [Compound 36-2]",
    "study system": "human mGluR2 (Homo sapiens)",
    "assay metric": "pEC50",
    "numeric readout": 8.52
  },
  {
    "compound": "CN1c2nc(-c3ccccc3C#N)ccc2N(CC(C)(C)C)S1(=O)=O [Compound 30-2]",
    "study system": "human mGluR2 (Homo sapiens)",
    "assay metric": "pEC50",
    "numeric readout": 8.05
  },
  {
    "compound": "Cc1ccc(CN2CCN(C(=O)[C@@H](C)O)CC2)cc1-c1ccc2c(n1)N(C)S(=O)(=O)N2CC1CC1(F)F (stereo partly shown) [Compound 43-3]",
    "study system": "human mGluR2 (Homo sapiens)",
    "assay metric": "pEC50",
    "numeric readout": 8.10
  }
]

(a) CN1c2nc(-c3cccc(CN4CCS(=O)(=O)CC4)c3F)ccc2N(CC2CC2(F)F)S1(=O)=O (stereo not shown) [Compound 42-3]
(b) Cc1ccc(C(C)(C)O)cc1-c1ccc2c(n1)N(C)S(=O)(=O)N2CC1CC1 [Compound 38-3]
(c) CN1c2cc(-c3cc(Oc4ccnc(C#N)c4)ccc3C#N)ccc2N(CC2CC2(F)F)S1(=O)=O (stereo not shown) [Compound 12-4]
Request: # rank_down: sort by pEC50, max first List each label, following the requested order.
Response: c, a, b

---

Target: human mGluR2 (Homo sapiens)
Assay: FLIPR Ca2+ mobilization assay, potentiation of glutamate response
Conditions: CHO dhfr- cells expressing human mGluR2 and Gα16; potentiation after EC20 glutamate (900 nM); read-out: Representative FLIPR EC50 Values: IC50
assay metric: EC50 (nM)

[
  {
    "compound": "CN1c2cc(-c3cccc(CNc4ncccc4C#N)c3)ccc2N(CC2CC2)S1(=O)=O",
    "unit string": "nM",
    "EC50": 130
  },
  {
    "compound": "CN1c2cc(-c3cc(CN4CCc5onc(O)c5C4)ccc3C#N)ccc2N(CC2CC2(F)F)S1(=O)=O (centres unmarked)",
    "unit string": "nM",
    "EC50": 0.8
  }
]

(a) CC(=O)N1CCN(Cc2ccc(C)c(-c3ccc4c(n3)N(C)S(=O)(=O)N4CC3CC3(F)F)c2)CC1 (centres unmarked)
(b) CN1c2cc(-c3cc(C(C)(C)O)ccc3F)ccc2N(CC2CC2(F)F)S1(=O)=O (centres unmarked)
(c) Cc1cccnc1-c1ccc2c(c1)N(C)S(=O)(=O)N2CC1CC1
(d) CN1c2nc(-c3ccc(N4CCN(S(C)(=O)=O)CC4)cc3)ccc2N(CC2CC2(F)F)S1(=O)=O (centres unmarked)
Request: Would you mind ranking these compounds by ascending EC50? Reply: labels, ordered per the request.
Response: a, b, d, c
(a: 11 nM, b: 22 nM, d: 140 nM, c: 490 nM)

(P) CN1c2cc(-c3cccc(CN4CCN(S(C)(=O)=O)CC4)n3)ccc2N(CC2CC2(F)F)S1(=O)=O (centres unmarked)
(Q) CN1c2cc(-c3ccccc3C#N)ccc2N(CC2CC2)S1(=O)=O
Request: I'd appreciate it if you could identify which of P and Q has the greater EC50. Pick one; state its label.
Response: P
(P: 24 nM, Q: 5 nM)

Data provenance is patent US9108937B2.
